protocolSummary: thallium flux activation in parental CHO cells, counter-screen for KCNQ1 potentiator project (AID 493006);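 for activation: fluorescence ratio of max minus min over baseline after K+ and Tl+ depolarization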
runConditions: parental CHO-K1 cells, FluxOR thallium flux, at 10 µM
Activity calls are given as the source filed them.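 Rule for the calls: active = duplicate-averaged activation above buffer control mean plus 5 SD of those controls; inactive = the rest.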
Outcomes: y = active, n = inactive

1) COC(=O)c1ccsc1NC(=O)CN1CCN(Cc2ccc3c(c2)OCO3)CC1: n
2) COc1ccc(C(=O)CC(=O)C(=O)Nc2ccccc2C(F)(F)F)cc1: n
3) CCc1ccc(OCC(=O)Nc2ccc(S(=O)(=O)N3CCOCC3)cc2)cc1: n
4) CCOC(=O)c1ccccc1NC(=O)CSc1nc2ccccc2n1CC(=O)N1CCCC1: n
5) CCCOc1ccc(C(=O)NNC(=S)NC(=O)CC)cc1: n
6) CSc1ccc(NC(=O)CC(C)=O)cc1: n
7) O=C1N(Cc2ccc(F)cc2)CCN1c1ccc(F)cc1: y
8) COc1ccc(-c2cc(C(=O)Nc3c(Cl)cc(Cl)cc3Cl)c3ccccc3n2)cc1OC: n
9) Cc1nc(NC(=S)NC(=O)c2ccccc2)sc1C: n
10) Cc1ccccc1-n1cnnc1SCC(=O)N1CCN(c2ccccc2)CC1: y
11) S=C(N/N=C/c1ccccc1Cl)Nc1cccc(Cl)c1Cl: n
12) CC1Cc2ccccc2N1C(=S)NC(=O)c1ccc(Cl)cc1Cl (centres undefined): y
13) O=C(NC(=S)NCCC1=CCCCC1)c1ccc(Br)o1: y
14) CCOc1ccccc1C1c2[nH]c3ccccc3c2C[C@H]2C(=O)N(C3CC3)CC(=O)N12 (some centres undefined): n
15) CCc1cc(-c2n[nH]c(C)c2-c2nc3ccccc3s2)c(O)cc1OCC(=O)NN: n
16) Cn1nc(SCC(=O)O)sc1=S: n
17) CCSc1nnc(NS(=O)(=O)c2ccc(OC)cc2)s1: n
18) Cc1ccc(OCCN2C(=O)c3ccccc3C2=O)c([N+](=O)[O-])c1: n
19) O=C1CN(S(=O)(=O)c2ccccc2)CC(=O)N1CCc1ccccc1: n
20) CCc1cc(=O)oc2cc(OC(C)C(=O)NCC(O)c3ccccc3)c(Cl)cc12 (centres undefined): n
21) O=c1oc2cc(OCCO)ccc2c2c1CCCC2: n
22) CCCCC(=O)N(c1ccc(OCC)cc1)C1C=CS(=O)(=O)C1 (centres undefined): n
23) O=c1c(-c2ccccc2)[n+]([O-])c2ccccc2n1O: n
24) CC1C/C(=C/c2ccncc2)C(=O)/C(=C/c2ccncc2)C1 (centres undefined): n
25) Cc1ccccc1Cn1c(O)c(N=NC(=S)Nc2ccccc2F)c2ccccc21: n
26) CC(C)c1nc2oc3c(NCC4CCCO4)ncnc3c2c2c1COC(C)(C)C2 (centres undefined): n
27) CCC(C)NCC(=O)Nc1sc2c(c1C(N)=O)CCC2 (centres undefined): n
28) Nc1nc(-c2ccccc2)c(N=Nc2ccccc2Cl)s1: y
29) CCOC(=O)/C(=C\c1cccnc1)C(=O)c1cc(C(C)=O)c(Nc2ccccc2)s1: n
30) c1ccc(CNc2nc3ccccc3[nH]2)cc1: n
31) O=C(O)CCC(=O)Nc1ccc(S(=O)(=O)c2ccc(NC(=O)CCC(=O)O)cc2)cc1: n
32) O=[N+]([O-])c1cc(CN2CCCC2)ccc1Sc1ccc(Cl)cc1: n
33) O=C(NC(=S)N1CCN(c2nc(-c3ccccc3)cs2)CC1)c1cncc(Br)c1: y
34) Cc1cc(N2CCOCC2)nc(SCC(=O)c2ccc(Cl)cc2)n1: n
35) CCNc1nc(NCC)n2c(SCC(=O)Nc3ccc(F)cc3)nnc2n1: n
36) Cc1ccc(-c2csc(NC(=O)Cc3ccc(F)cc3)n2)o1: n
37) CCCn1c(SCC(=O)Nc2ccccc2C(=O)OC)nc2c1c(=O)n(C)c(=O)n2C: n
38) Cc1cnc(NC(=O)c2ccc(-c3nc4ccccc4s3)o2)s1: n
39) C/C(=N\NC(=S)Nc1ccc(C)cc1)c1cc2ccccc2o1: n
